system: hippocampal kindled seizures; assay: Rat Hippocampal Kindling Model (Interruption of Kindled State); type: in vivo; conditions: i.p.; line of the ED50 dose
Property Label: After-Discharge Duration (% of control)

Value sought for every listed molecule: After-Discharge Duration (% of control).
1. CCC1(C)CC(=O)NC1=O (stereo not shown) [Ethosuximide]
2. CCCC(CCC)C(=O)O [Valproic acid]
3. O=C1NC(=O)C(c2ccccc2)(c2ccccc2)N1 [Phenytoin]
4. NC(=O)N1c2ccccc2C=Cc2ccccc21 [Carbamazepine, carbamazepine]

## Result
1. 78 ± 13% of control
2. 3 ± 1.4% of control
3. 209 ± 43% of control
4. 72 ± 13% of control
